Measurement Target: T1, human TNFR1 on MRC-5 cells (human, UniProt P19438 30-455)
T1 sequence (looked up): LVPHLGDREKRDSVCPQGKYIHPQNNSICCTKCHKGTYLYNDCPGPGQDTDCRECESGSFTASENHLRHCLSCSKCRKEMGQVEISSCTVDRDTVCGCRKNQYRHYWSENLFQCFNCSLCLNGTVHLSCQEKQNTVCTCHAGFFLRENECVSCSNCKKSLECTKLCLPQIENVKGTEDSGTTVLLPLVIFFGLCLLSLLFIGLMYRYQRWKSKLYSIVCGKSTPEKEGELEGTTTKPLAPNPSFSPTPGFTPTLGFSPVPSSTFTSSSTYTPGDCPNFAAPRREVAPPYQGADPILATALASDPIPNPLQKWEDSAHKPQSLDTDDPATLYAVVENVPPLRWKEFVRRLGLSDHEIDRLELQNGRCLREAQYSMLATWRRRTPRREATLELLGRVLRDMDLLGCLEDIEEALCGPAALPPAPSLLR
Test Summary: cell-based or functional assay
Catalogue of ND50 (MRC5) values
Unit nM implied. Number only.

DMS0163 (bispecific antibody) EVQLLESGGGLVQPGGSLRLSCAASGFTFVKYSMGWVRQAPGKGPEWVSQISNTGDRTYYADSVKGRFTISRDNSKNTLYLQMNSLRAEDTAVYYCAIYTGRWEPFDYWGQGTLVTVSSASTSGPSDIQMTQSPSSLSASVGDRVTITCRASRPIGTMLSWYQQKPGKAPKLLILAFSRLQSGVPSRFSGSGSGTDFTLTISSLQPEDFATYYCAQAGTHPTTFGQGTKVEIKRAAAEQKLISEEDLN = 12

Value lookup for ND50 (MRC5); key = DMS0188 (bispecific antibody) EVQLLESGGGLVQPGGSLRLSCAASGFTFVKYSMGWVRQAPGKGPEWVSQISNTGDRTYYADSVKGRFTISRDNSKNTLYLQMNSLRAEDTAVYYCAIYTGRWEPFDYWGQGTLVTVSSASTSGPSDIQMTQSPSSLSASVGDRVTITCRASRPIGTMLSWYQQKPGKAPKLLILFGSRLQSGVPSRFSGSGSGTDFTLTISSLQPEDFATYYCAQAGTHPTTFGQGTKVEIKRAAAEQKLISEEDLN
17

Give its ND50 (MRC5) value. Item: DMS0186 (bispecific antibody) EVQLLESGGGLVQPGGSLRLSCAASGFTFVKYSMGWVRQAPGKGPEWVSQISNTGDRTYYADSVKGRFTISRDNSKNTLYLQMNSLRAEDTAVYYCAIYTGRWEPFDYWGQGTLVTVSSASTDIQMTQSPSSLSASVGDRVTITCRASRPIGTMLSWYQQKPGKAPKLLILFGSRLQSGVPSRFSGSGSGTDFTLTISSLQPEDFATYYCAQAGTHPTTFGQGTKVEIKRAAAEQKLISEEDLN
20

Field request: ND50 (MRC5) | item: DMS0169 (bispecific antibody) EVQLLESGGGLVQPGGSLRLSCAASGFTFVKYSMGWVRQAPGKGLEWVSQISNTADRTYYAHSVKGRFTISRDNSKNTLYLQMNSLRAEDTAVYYCAIYTGRWVPFEYWGQGTLVTVSSASTSGPSDIQMTQSPSSLSASVGDRVTITCRASRPIGTMLSWYQQKPGKAPKLLILFGSRLQSGVPSRFSGSGSGTDFTLTISSLQPEDFATYYCAQAGTHPTTFGQGTKVEIKRAAAEQKLISEEDLN
2.7

What measured ND50 (MRC5) goes with DMS0182 (bispecific antibody) EVQLLESGGGLVQPGGSLRLSCAASGFTFVKYSMGWVRQAPGKGPEWVSQISNTGDRTYYADSVKGRFTISRDNSKNTLYLQMNSLRAEDTAVYYCAIYTGRWEPFDYWGQGTLVTVSSASTDIQMTQSPSSLSASVGDRVTITCRASRPIGTTLSWYQQKPGKAPKLLIWFGSRLQSGVPSRFSGSGSGTDFTLTISSLQPEDFATYYCAQAGTHPTTFGQGTKVEIKRAAAEQKLISEEDLN ?
6

Reported ND50 (MRC5), binder DMS0168 (bispecific antibody) EVQLLESGGGLVQPGGSLRLSCAASGFTFVKYSMGWVRQAPGKGLEWVSQISNTADRTYYAHSVKGRFTISRDNSKNTLYLQMNSLRAEDTAVYYCAIYTGRWVPFEYWGQGTLVTVSSASTSGPSDIQMTQSPSSLSASVGDRVTITCRASQSIIKHLKWYQQKPGKAPKLLIYGASRLQSGVPSRFSGSGSGTDFTLTISSLQPEDFATYYCQQGARWPQTFGQGTKVEIKRAAAEQKLISEEDLN : ____
16
